Origin of values: patent US20230219951A1

# Assay name: Pharmacokinetic evaluation in nude mice
# Assay type: in vivo
# Condition info: female, mouse, plasma, po; BALB/C nude mice, intragastric administration, 50 mg/kg; read-out: Apparent distribution volume Vz/F
Readout: Vd/F (L/kg)
Reply with just the number (in L/kg).

-- ask Would you kindly share the measured Vd/F for Cc1nc(N[C@H](C)c2cccc(C(F)F)c2F)c2cc([C@]3(O)CC[C@@H](O)CC3)c(=O)[nH]c2n1 [Example 18-p1] ?
-- reply 16.6

###

# Assay name: Pharmacokinetic evaluation in mice
# Format: in vivo
# Condition info: female, mouse, plasma, po; C57 mice, intragastric administration, 2 mg/kg; read-out: Apparent distribution volume Vz/F
Readout: Vd/F (L/kg)
Answer in L/kg, number only, no unit symbol.

-- ask Requested field: Vd/F. Item: Cc1nc(N[C@H](C)c2cccc(C(F)F)c2F)c2cc([C@]3(O)CC[C@@H](O)CC3)c(=O)[nH]c2n1 [Example 18-p1]
-- reply 23.4

###

# Tgt: interaction between the KRAS protein subtype G12D and the SOS1 protein (Homo sapiens, UniProt Q07889)
# Construct: GST-TEV-SOS1(564-1049) (Viva Biotech, SOS1-191010); purchased SOS1: Viva Biotech; KRAS: Shanghai Panchao Biotechnology Co., Ltd. SOS1-191010
# Sequence (Q07889 564-1049): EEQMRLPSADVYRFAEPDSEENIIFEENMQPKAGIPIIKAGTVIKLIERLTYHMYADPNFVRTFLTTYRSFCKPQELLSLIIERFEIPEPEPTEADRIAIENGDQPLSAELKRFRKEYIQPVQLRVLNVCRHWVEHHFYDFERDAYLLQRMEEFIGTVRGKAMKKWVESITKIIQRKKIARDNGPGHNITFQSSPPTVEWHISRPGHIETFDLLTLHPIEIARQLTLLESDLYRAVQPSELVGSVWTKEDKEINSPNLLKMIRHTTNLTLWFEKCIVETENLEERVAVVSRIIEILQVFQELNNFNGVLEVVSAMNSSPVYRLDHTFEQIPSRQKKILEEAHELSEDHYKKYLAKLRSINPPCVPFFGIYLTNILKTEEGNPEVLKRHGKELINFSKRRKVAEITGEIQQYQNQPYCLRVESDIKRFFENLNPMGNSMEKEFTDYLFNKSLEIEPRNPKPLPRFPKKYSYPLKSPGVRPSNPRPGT
# Assay name: Inhibition of the interaction between KRAS G12D and SOS1 protein (AlphaLISA/AlphaScreen)
# Assay type: binding
# Condition info: KRAS G12D + GST-TEV-SOS1(564-1049) + GDP
Cut-off 20 nM on IC50: below means 1, at or above means -1.

The examples below pair each entry with its known result.
-- ask Given CC(=O)N1CC(Oc2cc3c(N[C@H](C)c4cccc(C(F)F)c4F)nc(C)nc3[nH]c2=O)C1 (racemic) , is recorded IC50 strictly lower than 20 nM?
-- reply -1

-- ask Also Cc1nc(N[C@H](C)c2cccc(C(F)F)c2F)c2cc(C3(O)CCN(C(=O)CC#N)CC3)c(=O)[nH]c2n1 , if possible.
-- reply 1

-- ask Quick one: CC(=O)N1CCC(O)(c2cc3c(N[C@H](C)c4cccc(C(F)F)c4F)nc(C)nc3[nH]c2=O)CC1
-- reply 1

-- ask What do you have for Cc1nc(N[C@H](C)c2cccc(C(F)F)c2F)c2cc(N3CCOCC3)c(=O)[nH]c2n1 ?
-- reply -1

-- ask Another compound to check: CC(=O)N1CC=C(c2cc3c(N[C@H](C)c4cc(N)cc(C(F)(F)F)c4)nc(C)nc3[nH]c2=O)CC1
-- reply 1

Continue with the compound presented below.
-- ask Report whether reported IC50 is lower than 20 nM (strictly) for Cc1nc(N[C@H](C)c2cccc(C(F)F)c2F)c2cc(C3CCN(C(=O)CC#N)CC3)c(=O)[nH]c2n1
-- reply -1

###

# Assay name: Pharmacokinetic evaluation in dogs
# Assay type: in vivo
# Condition info: both sexes, dog, plasma, po; beagle dogs, intragastric administration, 2 mg/kg; read-out: Clearance CLz/F
Readout: CL/F
Put down the number, then write its unit next to it.

-- ask So what's the measured CL/F for this one? Cc1nc(N[C@H](C)c2cccc(C(F)F)c2F)c2cc([C@]3(O)CC[C@@H](O)CC3)c(=O)[nH]c2n1 [Example 18-p1]
-- reply 7.64 mL/min/kg

###

Quick reference: IC50 of the listed items.
# Tgt: interaction between the KRAS protein subtype G12D and the SOS1 protein (Homo sapiens, UniProt Q07889)
# Construct: GST-TEV-SOS1(564-1049) (Viva Biotech, SOS1-191010); purchased SOS1: Viva Biotech; KRAS: Shanghai Panchao Biotechnology Co., Ltd. SOS1-191010
# Assay name: Inhibition of the interaction between KRAS G12D and SOS1 protein (AlphaLISA/AlphaScreen)
# Assay type: binding
# Condition info: KRAS G12D + GST-TEV-SOS1(564-1049) + GDP

Use the examples below as a reference point.
-- ask May I ask what IC50 has been recorded for Cc1nc(N[C@H](C)c2cccc(C(F)F)c2F)c2cc([C@]3(O)CC[C@@H](O)CC3)c(=O)n(C)c2n1 [Example 28-p1] ?
-- reply 100 nM

-- ask Another: Cc1nc(N[C@H](C)c2cccc3c2OCC3(F)F)c2cc([C@]3(O)CC[C@@H](O)CC3)c(=O)[nH]c2n1 (racemic) [Example 25-p1]
-- reply 31 nM

-- ask Try Cc1nc(N[C@H](C)c2cccc(C(F)F)c2F)c2cc([C@]3(O)CC[C@H](O)CC3)c(=O)[nH]c2n1 [Example 18-p2] next.
-- reply 40 nM

Next:
-- ask Which measured IC50 value corresponds to Cc1nc(N[C@H](C)c2cccc(C(F)F)c2F)c2cc(O[C@H]3CCOC3)c(=O)[nH]c2n1 ?
-- reply 34 nM

###

# Tgt: interaction between the KRAS protein subtype G12D and the SOS1 protein (Homo sapiens)
# Construct: GST-TEV-SOS1(564-1049) (Viva Biotech, SOS1-191010); purchased SOS1: Viva Biotech; KRAS: Shanghai Panchao Biotechnology Co., Ltd. SOS1-191010
# Sequence (Q07889 564-1049): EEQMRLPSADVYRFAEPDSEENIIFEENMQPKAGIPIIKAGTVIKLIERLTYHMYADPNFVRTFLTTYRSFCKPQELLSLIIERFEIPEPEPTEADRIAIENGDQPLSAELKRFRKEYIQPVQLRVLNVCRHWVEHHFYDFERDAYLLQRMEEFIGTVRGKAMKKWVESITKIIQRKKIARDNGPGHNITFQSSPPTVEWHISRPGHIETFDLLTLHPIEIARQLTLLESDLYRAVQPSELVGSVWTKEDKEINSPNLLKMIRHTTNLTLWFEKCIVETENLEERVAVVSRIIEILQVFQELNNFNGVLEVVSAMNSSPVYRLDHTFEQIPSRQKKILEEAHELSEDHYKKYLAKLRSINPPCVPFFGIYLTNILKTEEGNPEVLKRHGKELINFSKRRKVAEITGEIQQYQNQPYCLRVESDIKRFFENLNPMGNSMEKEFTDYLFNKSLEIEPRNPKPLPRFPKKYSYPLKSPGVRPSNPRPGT
# Assay name: Inhibition of the interaction between KRAS G12D and SOS1 protein (AlphaLISA/AlphaScreen)
# Assay type: binding
# Condition info: KRAS G12D + GST-TEV-SOS1(564-1049) + GDP
IC50 strictly less than 40 nM = Criterion met. Otherwise Criterion not met.

Study these solved cases before continuing.
-- ask Here's an entry: Cc1nc(N[C@H](C)c2cccc(C(F)(F)CO)c2F)c2cc(OC3CCOC3)c(=O)[nH]c2n1 (stereo partly shown) . Is its IC50 below 40 nM?
-- reply Criterion met

-- ask Consider next the compound Cc1nc(N[C@H](C)c2cccc(C(F)F)c2F)c2cc(C3=CCOCC3)c(=O)[nH]c2n1 in the same way.
-- reply Criterion not met

***
-- ask For this compound, is IC50 lower than 40 nM? Cc1nc(N[C@H](C)c2cccc3c2OCC3(F)F)c2cc([C@]3(O)CC[C@H](O)CC3)c(=O)[nH]c2n1 (racemic) [Example 25-p2]
-- reply Criterion met

-- ask Query Cc1nc(N[C@H](C)c2cccc(C(F)F)c2F)c2cc(C3=CCC(C(=O)N(C)C)CC3)c(=O)[nH]c2n1 (stereo partly shown) next
-- reply Criterion met

###

# Assay name: Pharmacokinetic evaluation in dogs
# Assay type: in vivo
# Condition info: both sexes, dog, plasma, po; beagle dogs, intragastric administration, 2 mg/kg; read-out: Apparent distribution volume Vz/F
# Procedure: The drug concentration in the plasma of the test animals (dogs) at different time points after intragastric administration (i.g.) of compound 18-p1 was determined by using an LC/MS/MS method. The pharmacokinetic behavior in dogs of the compound of the present disclosure was studied and its pharmacokinetic profile was evaluated. Four beagle dogs, half male and half female, fasted overnight, supplied by animal reserve bank (999M-004). […]
Readout: Vd/F (L/kg)
Answer format: numeric, L/kg implied, no suffix.

-- ask Param item = Cc1nc(N[C@H](C)c2cccc(C(F)F)c2F)c2cc([C@]3(O)CC[C@@H](O)CC3)c(=O)[nH]c2n1 [Example 18-p1] ; retrieve measured Vd/F.
-- reply 2.63
